# measurement_description: AP1 Signaling Pathway (AID 357);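 note: ME-180 reporter cells stimulated with EGF at its EC50 level; % is set by controls: 0 for no effect and ±100 for the full control effect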
# applied_conditions: ME-180 (cervical carcinoma) AP-1-bla reporter, EGF-induced, beta-lactamase ratio, 5 h; at 7.69 µM (top of the series) unless noted
# Description: NCGC Assay Overview: Activator protein-1 (AP-1), a transcription factor, plays an important role in tumor genesis by regulating genes involved in cell proliferation, differentiation, apoptosis, and angiogenesis. AP-1 activity is induced by a complex network of signaling pathways that involves extracellular signals, such as growth factors. […] Library compounds were measured for their ability to modulate positively or negatively the action of EC50 EGF on reporter gene activity. […]
Results filed as inconclusive are left out.
experimental_endpoint: activity change, negative = inhibition (%)
Numbers only here, please. The scale is %.

- compound_structure: "COc1ccc(-c2nc3cnc(N4CCOCC4)nc3n(CCC#N)c2=O)cc1"
  unit_name: "%"
  activity change, negative = inhibition: 3.37
- compound_structure: "COCCn1c(=O)c(-c2ccccc2)nc2cnc(N3CCOCC3)nc21"
  unit_name: "%"
  activity change, negative = inhibition: -10.7
- compound_structure: "CN(C)c1ncc2nc(-c3ccc(F)cc3)c(=O)n(CCC#N)c2n1"
  unit_name: "%"
  activity change, negative = inhibition: 4.59
- compound_structure: "COc1ncc2nc(-c3cn(C)c4ccccc34)c(=O)n(Cc3ccc(F)cc3)c2n1"
  unit_name: "%"
  activity change, negative = inhibition: 10.6
- compound_structure: "CC(C)CN1CC2(CCN(C(=O)c3cnccn3)CC2)C1"
  unit_name: "%"
  activity change, negative = inhibition: -4.93
- compound_structure: "Cc1noc(C)c1-c1cncnc1NC1CC1"
  unit_name: "%"
  activity change, negative = inhibition: 12.1
- compound_structure: "O=C(c1cc(C(F)(F)F)cc(C(F)(F)F)c1)N1CCC2(CC1)CN(c1ncccn1)C2"
  unit_name: "%"
  activity change, negative = inhibition: -14.3
- compound_structure: "O=c1c(CCc2ccccc2)nc2cnc(N3CCOCC3)nc2n1C1CC1"
  unit_name: "%"
  activity change, negative = inhibition: -19.2

Please report the recorded activity change, negative = inhibition for O=C(c1cccc(F)c1)N1CCC2(CCCN(c3ccc(-c4ccccc4)cc3)C2)CC1 . 6.64

Please report the recorded activity change, negative = inhibition for COc1ccc(NC(=O)N2CCCC3(CCN(C(=O)c4cc(C(F)(F)F)cc(C(F)(F)F)c4)CC3)C2)cc1 . -9.5

Please report the recorded activity change, negative = inhibition for O=S(=O)(c1ccccc1)N1CCC[C@@]2(CCN(c3cccc(-c4ccccc4)c3)C2)C1 . -23.9

Please report the recorded activity change, negative = inhibition for Cc1cnc(CNc2ncncc2-c2ccccc2C)cn1 . 3.21

Please report the recorded activity change, negative = inhibition for O=C(c1ccco1)N1CCC2(CCN(Cc3ccncc3)CC2)CC1 . 1.28

Please report the recorded activity change, negative = inhibition for Clc1ccccc1-c1nccc(NCCN2CCOCC2)n1 . 4.13

Please report the recorded activity change, negative = inhibition for COc1ncc2nc(-c3cccs3)c(=O)n(Cc3cccs3)c2n1 . 5.34

Please report the recorded activity change, negative = inhibition for CS(=O)(=O)Nc1cccc(-c2nc(NC3CC3)c3ccccc3n2)c1 . -17.2

Please report the recorded activity change, negative = inhibition for Cn1c(=O)c(-c2cc(F)cc(F)c2)nc2cnc(Nc3ccccc3)nc21 . -3.31

Please report the recorded activity change, negative = inhibition for O=c1c(-c2ccccc2)nc2cnc(Oc3cccc(Cl)c3)nc2n1C1CC1 . -15.1

Please report the recorded activity change, negative = inhibition for CS(=O)(=O)Nc1cccc(-c2nc(N3CCNCC3)c3ccccc3n2)c1 . 5.71

Cited source: PubChem BioAssay (NCATS)
